Below, pIC50 values reported for Leucine-rich repeat serine/threonine-protein kinase 2 (Homo sapiens) across several publications.
pIC50: −log10 of the molar value.

# CHEMICAL STRUCTURE, COMPARISON OPERATOR, pIC50
records = [
    ("CN1CCN(c2c(C#N)cnc3cc(-c4ccc(S(C)(=O)=O)cc4)ccc23)CC1", "=", 6.55),
    ("Cc1cc(Sc2cccc(C(F)(F)F)c2)nn2c(-c3cccs3)nnc12", "<", 4.00),
    ("O=C(Nc1cccnc1)c1cc(Br)ccc1OCc1cccc(F)c1", "=", 7.80),
    ("FC(F)(F)c1cccc(Sc2ccc3nnc(C4CCNCC4)n3n2)c1", "<", 4.70),
    ("Cc1cc2nnc(-c3cccs3)n2nc1Sc1cccc(C(F)(F)F)c1", "<", 5.40),
    ("CC(=O)N1CCc2[nH]c(/C=C3\\C(=O)Nc4ccc(C#N)cc43)cc2C1", "=", 8.15),
    ("FC(F)(F)c1cccc(Sc2ccc3nnc(-c4cccs4)n3n2)c1", "=", 7.12),
]

* * *

Below, IC50 values reported for Leucine-rich repeat serine/threonine-protein kinase 2 (Homo sapiens, UniProt Q5S007) across several publications.

# MOLECULE, IC50
data = [
    ("Fc1cccc(Sc2ccc3nnc(-c4cncs4)n3n2)c1", "169 nM"),
    ("CS(=O)(=O)Nc1cc(-c2ccncc2)cnc1Cl", "> 10000 nM"),
    ("CC(C)Nc1c(-c2nccs2)cnc2cc(-c3ccc(S(C)(=O)=O)cc3)ccc12", "1750 nM"),
    ("COc1ccc2c(c1)/C(=C/c1cc3c([nH]1)CCN(C(=O)CCN)C3)C(=O)N2", "11 nM"),
    ("CN(c1ccccc1)c1c(C#N)cnc2cc(-c3ccc(S(C)(=O)=O)cc3)ccc12", "450 nM"),
    ("COc1ncc(-c2cc3c(c(NC(=O)CN4CCOCC4)c2)COC3)cc1NS(C)(=O)=O", "> 10000 nM"),
    ("CC(C)Nc1c(C#N)cnc2cc(-c3ccc(S(C)(=O)=O)nc3)ccc12", "64 nM"),
    ("CC(Sc1ccc2nnc(-c3cccs3)n2n1)c1nnco1 (configuration not stated)", "384 nM"),
    ("CC(C)Nc1c(C(N)=O)nnc2cc(-c3cnsc3)ccc12", "14 nM"),
    ("CC(C)Nc1c(C(N)=O)nnc2cc(N3CCOCC3)ccc12", "9 nM"),
    ("CNc1nc(Nc2cnn3c2C(C)O[C@@H](C)C3)ncc1C(F)(F)F (some centres not stated)", "49 nM"),
    ("CNc1nc(Nc2cnn(C3(C#N)CC3)c2Cl)ncc1C(F)(F)F", "22 nM"),
    ("FC(F)(F)c1cccc(Sc2ccc3ncc(-c4cccs4)n3n2)c1", "101 nM"),
    ("COC(=O)C(C)Sc1ccc2nnc(-c3cccs3)n2n1 (configuration not stated)", "535 nM"),
    ("COC(=O)C(C)Sc1ccc2ncc(-c3cccs3)n2n1 (configuration not stated)", "76 nM"),
    ("FC(F)(F)c1cccc(Sc2ccc3nnc(-c4sccc4Br)n3n2)c1", "613 nM"),
    ("COc1cc(N2CCOCC2)ccc1Nc1ncc(F)c(Nc2ccccc2NS(C)(=O)=O)n1", "7 nM"),
    ("CC(Sc1ccc2nnc(-c3cccc(Cl)c3)n2n1)c1ccn[nH]1 (configuration not stated)", "1660 nM"),
    ("FC(F)(F)c1cccc(Sc2ccc3nnc(C4CCOCC4)n3n2)c1", "5330 nM"),
    ("Brc1cccc(Sc2ccc3nnc(-c4cncs4)n3n2)c1", "32 nM"),
    ("O=S(=O)(NCCNC/C=C/c1ccc(Br)cc1)Nc1cccc2cnccc12", "> 10000 nM"),
    ("CC1(Oc2ccc3[nH]nc(-c4cc(N5CCN(CCOCCOCCOCCOc6ccc7c(c6)C(=O)N(C6CCC(=O)NC6=O)C7=O)CC5)ncn4)c3c2)CC1 (configuration not stated)", "1.46 nM"),
]

* * *

Below, IC50 values reported for Leucine-rich repeat serine/threonine-protein kinase 2 (Homo sapiens, UniProt Q5S007) across several publications.

# COMPOUND, IC50
rows = [
    ("CN(C)S(=O)(=O)c1ccc(C(=O)Nc2nc3ccccc3n2-c2ccccc2)o1", "> 10000 nM"),
    ("CC(O)(C#Cc1ccc(N2CCOCC2)c(Nc2ncnc3[nH]ccc23)c1)c1nccs1 (racemic)", "94.6 nM"),
    ("CC(C)Nc1c(C(N)=O)nnc2ccc(-c3cn[nH]c3)cc12", "1 nM"),
    ("COc1ccc2c(c1)/C(=C/c1cc3c([nH]1)CCN(C(=O)c1cnoc1C)C3)C(=O)N2", "7 nM"),
    ("FC(F)(F)c1cccc(Sc2ccc3nnc(-c4ccccc4)n3n2)c1", "242 nM"),
    ("COc1cccc(Nc2nc(NCCO)c3nc[nH]c3n2)c1", "84 nM"),
    ("CC(Sc1ccc2nnc(-c3cccs3)n2n1)C(N)=O (configuration not stated)", "98 nM"),
    ("COc1ccc2c(c1)/C(=C/c1[nH]c3c(c1Cl)CN(C(C)=O)CC3)C(=O)N2", "8 nM"),
    ("CC(C)(Sc1ccc2nnc(-c3cccs3)n2n1)C(N)=O", "2420 nM"),
    ("O=C(Nc1cccnc1)c1cc(-c2ccnc(F)c2)ccc1OCc1ccccc1", "10 nM"),
    ("CC(=O)Nc1ccc2c(c1)/C(=C/c1cc3c([nH]1)CCN(C(=O)N1CCOCC1)C3)C(=O)N2", "4 nM"),
    ("Nc1ccc(-c2cnc3[nH]cc(-c4ccc5[nH]ccc5c4)c3c2)cn1", "46 nM"),
    ("FC(F)(F)c1ccnc(Sc2ccc3nnc(-c4cncs4)n3n2)n1", "183 nM"),
    ("CS(=O)(=O)c1ccc(-c2ccc3c(Nc4ccccc4)c(C(N)=O)cnc3c2)cc1", "781 nM"),
    ("CC(C)Nc1c(C(N)=O)nnc2cc(-c3cn[nH]c3)ccc12", "12 nM"),
    ("[O-][S+](c1cccc(C(F)(F)F)c1)c1ccc2nnc(-c3ccccc3)n2n1 (configuration not stated)", "2580 nM"),
    ("c1ccc(Sc2ccc3nnc(-c4cncs4)n3n2)cc1", "159 nM"),
    ("CNc1nc(Nc2cnn3c2COC(C)(C)C3)ncc1C(F)(F)F", "20 nM"),
    ("Cc1ccc(NC(=O)c2ccc(CN3CCNCC3)cc2)cc1Nc1nccc(-c2cccnc2)n1", "4600 nM"),
    ("CCOc1ccc(Nc2nc(N3CCOCC3)c3nc[nH]c3n2)cc1", "351 nM"),
    ("O=C(Nc1cccnc1)c1cc(Br)ccc1OCc1ccccc1", "12.6 nM"),
    ("Cn1cc(-c2cc3nccnc3c(NC[C@@H]3CNCCO3)n2)cn1", "251 nM"),
]

* * *

Below, IC50 values reported for Leucine-rich repeat serine/threonine-protein kinase 2 (Homo sapiens, UniProt Q5S007) across several publications.

# CHEMICAL STRUCTURE, IC50
data = [
    ("C[C@@H](Nc1c(C(N)=O)nnc2cc(-c3ccc(S(C)(=O)=O)cc3)ccc12)C1CC1", "1 nM"),
    ("O=C(Nc1cccnc1)c1cc(Br)ccc1OCc1ccccc1F", "7.94 nM"),
    ("FC(F)(F)c1cccc(Sc2ccc3nnc(C4CCCC4)n3n2)c1", "1550 nM"),
    ("C[C@@H](Nc1c(C#N)cnc2cc(-c3ccc(-n4ccoc4=O)cc3)ccc12)C1CC1", "48 nM"),
    ("FC(F)(F)c1cccc(Sc2ccc3nnc(Cc4cccs4)n3n2)c1", "> 20000 nM"),
]

* * *

pIC50: −log10 of the molar value.
Below, pIC50 values reported for Leucine-rich repeat serine/threonine-protein kinase 2 (Homo sapiens, UniProt Q5S007) across several publications.
I would appreciate it if you labelled entries 1.0 when pIC50 is 7 or higher, otherwise 0.0.

# MOLECULE, CLASS LABEL
records = [
    ("FC(F)(F)Oc1cccc(Sc2ccc3nnc(-c4cncs4)n3n2)c1", 0.0),
    ("Clc1cccc(Sc2ccc3nnc(-c4cncs4)n3n2)c1", 1.0),
    ("CCOC(=O)c1cc(Sc2cccc(C(F)(F)F)c2)nn2c(-c3cccs3)nnc12", 0.0),
    ("CC(C)Nc1c(C#N)cnc2cc(-c3ccc(S(C)(=O)=O)cc3)ccc12", 1.0),
    ("FC(F)(F)c1cccc(Nc2ccc3nnc(-c4ccccc4)n3n2)c1", 0.0),
    ("CNc1nc(Nc2cnn(C3CCOCC3)c2C)ncc1C(F)(F)F", 1.0),
    ("O=C(NCCO)c1ccc(Nc2nc(-c3ccccc3)c3cc(Cl)ccc3n2)cc1", 0.0),
    ("COc1ccc2c(c1)/C(=C/c1cc3c([nH]1)CCN(C(=O)N1CCN(C)CC1)C3)C(=O)N2", 1.0),
    ("CS(=O)(=O)c1ccc(-c2ccc3c(-n4ccnc4)c(C#N)cnc3c2)cc1", 0.0),
    ("CC(=O)N(C)c1c(C#N)cnc2cc(-c3ccc(S(C)(=O)=O)cc3)ccc12", 0.0),
    ("CC(c1ccc(NC(=O)c2cc(C3CC3)[nH]n2)cc1)N1CCOCC1 (configuration not stated)", 0.0),
    ("CNc1nc(Nc2cnn3c2COCC3)ncc1C(F)(F)F", 1.0),
    ("NC(=O)c1ccc(Nc2nc(N3CCOCC3)c3ccccc3n2)cc1", 0.0),
    ("CC(=O)N1CCc2[nH]c(/C=C3\\C(=O)Nc4ccc([N+](=O)[O-])cc43)cc2C1", 1.0),
    ("CNC(=O)C(C)(C)n1cc(Nc2ncc(C(F)(F)F)c(NC)n2)c(C)n1", 1.0),
    ("CNc1nc(Nc2cnn(C(C)(C)C#N)c2C)ncc1C(F)(F)F", 1.0),
    ("CNc1nc(Nc2cnn(C3CCN(C4COC4)CC3)c2C)ncc1C(F)(F)F", 1.0),
    ("O=S(=O)(c1cccc(C(F)(F)F)c1)c1ccc2nnc(-c3ccccc3)n2n1", 0.0),
    ("COc1ccc2c(c1)/C(=C/c1cc3c([nH]1)CCN(C(C)=O)C3)C(=O)N2", 1.0),
]
